Assay: Cytotoxicity against human SKBR3 cells after 72 hrs by alamar blue assay
Format: functional, SK-BR-3
Provide the reported GI of each item.
Quick note: give the figure in µM, leave out the unit.

I'd like to know its GI. The molecule in question is CN1CCN(c2ncc(Sc3cccc(NC(=O)CN)c3)c(OCc3ccccc3)n2)CC1
2.1

Could you share which GI value was measured for CCOc1nc(N2CCN(C)CC2)nc(OCC)c1Sc1nc(N)cc(NC(=O)CC)n1 ?
55

Name the reported GI value associated with the molecule C=CC(=O)Nc1cc(N)nc(Sc2c(OCC)nc(N3CCN(C)CC3)nc2OCC)n1
1.1

GI for C=CC(=O)Nc1ccnc(Sc2c(C)nc(N3CCN(C)CC3)nc2C)n1 ?
1.8

Requested read-out: GI. Entry: COc1nc(N2CCN(C)CC2)nc(OC)c1Sc1cccc(NC(=O)c2ccccc2)c1
8

Quick one: GI for Cc1nc(N2CCN(C)CC2)nc(C)c1Sc1nccc(NC(=O)c2ccco2)n1 ?
30

I have this molecule here, CCC(=O)Nc1cccc(Sc2c(OC)nc(N3CCN(C)CC3)nc2OC)c1 , and I need its recorded GI.
55

# input molecule: COc1nc(N2CCN(C)CC2)ncc1Sc1cccc(NC(=O)CN)c1 ; wanted: its GI
15

Please report the recorded GI for COc1nc(N2CCN(C)CC2)ccc1Sc1cccc(NC(=O)c2ccccc2)c1 .
20

If you can, please state the reported GI value of COc1nc(N2CCN(C)CC2)nc(OC)c1Sc1cccc(NC(=O)C2CCC2)c1 .
70

Item under review: COc1nc(N2CCN(C)CC2)nc(OC)c1Sc1cccc(NC(=O)CN)c1 . Reported GI?
25

* * *

Please go through the items and note down their INH.
Molecular target: UniProtKB P08238
Sequence (P08238 whole entry): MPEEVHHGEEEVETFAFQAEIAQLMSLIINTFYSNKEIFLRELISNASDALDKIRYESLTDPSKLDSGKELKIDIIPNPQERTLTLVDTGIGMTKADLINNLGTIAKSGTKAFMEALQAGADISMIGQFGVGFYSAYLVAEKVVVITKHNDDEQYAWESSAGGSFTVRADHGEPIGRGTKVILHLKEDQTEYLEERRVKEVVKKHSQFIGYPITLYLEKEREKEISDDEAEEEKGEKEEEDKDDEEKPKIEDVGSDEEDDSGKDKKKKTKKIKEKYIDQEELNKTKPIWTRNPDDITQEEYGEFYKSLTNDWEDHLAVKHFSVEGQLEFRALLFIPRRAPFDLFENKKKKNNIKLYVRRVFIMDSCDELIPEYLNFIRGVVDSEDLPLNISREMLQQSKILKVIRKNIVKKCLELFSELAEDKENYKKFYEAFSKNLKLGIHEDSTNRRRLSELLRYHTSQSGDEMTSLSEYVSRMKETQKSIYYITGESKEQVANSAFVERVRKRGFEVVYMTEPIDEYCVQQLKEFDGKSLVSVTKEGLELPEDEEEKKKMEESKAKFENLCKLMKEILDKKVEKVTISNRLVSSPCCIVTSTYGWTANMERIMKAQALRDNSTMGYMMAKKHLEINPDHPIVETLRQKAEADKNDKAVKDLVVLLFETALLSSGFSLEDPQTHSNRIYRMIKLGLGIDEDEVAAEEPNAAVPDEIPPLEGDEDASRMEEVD
Experiment: Displacement of GM-Cy3B from HSP90 in human SKBR3 cells after 24 hrs by fluorescence polarization assay
Settings: SK-BR-3

Which INH is listed for CCCCCCCC(=O)Nc1cc(N)nc(Sc2c(OC)nc(N3CCN(C)CC3)nc2OC)n1 ?
> 500 µM

INH lookup needed for COc1nc(N2CCN(C)CC2)nc(OC)c1Sc1cccc(NC(=O)C2CCC2)c1 , thanks.
> 250 µM

Using the record for COc1nc(N2CCN(C)CC2)ccc1Sc1cccc(NC(=O)c2ccccc2)c1 , report its INH.
> 250 µM

Look at this compound and give its reported INH. C=CC(=O)Nc1cc(N)nc(Sc2c(OCC)nc(N3CCN(C)CC3)nc2OCC)n1
> 500 µM

Return reported INH; argument: CCOc1nc(N2CCN(C)CC2)nc(OCC)c1Sc1nc(N)cc(NC(=O)CC)n1
> 250 µM

Fill in the blank: the reported INH of CCC(=O)Nc1cccc(Sc2c(OC)nc(N3CCN(C)CC3)nc2OC)c1 is ____.
> 500 µM

# INH lookup, item Cc1nc(N2CCN(C)CC2)nc(C)c1Sc1nccc(NC(=O)c2ccco2)n1
> 250 µM

Would you kindly share the measured INH for COc1nc(N2CCN(C)CC2)ncc1Sc1cccc(NC(=O)CN)c1 ?
> 500 µM

So what's the measured INH for this one? CN1CCN(c2ncc(Sc3cccc(NC(=O)CN)c3)c(OCc3ccccc3)n2)CC1
> 500 µM

Give its INH value. Item: COc1nc(N2CCN(C)CC2)nc(OC)c1Sc1cccc(NC(=O)CN)c1
> 500 µM

Can you look up the measured INH of COc1nc(N2CCN(C)CC2)nc(OC)c1Sc1nc(N)cc(NC(C)=O)n1 for me?
> 500 µM

INH lookup needed for C=CC(=O)Nc1ccnc(Sc2c(C)nc(N3CCN(C)CC3)nc2C)n1 , thanks.
> 500 µM

Please look up its INH: COc1nc(N2CCN(C)CC2)nc(OC)c1Sc1nc(N)cc(NC(=O)CCN(C)C)n1
> 500 µM

Sample COc1nc(N2CCN(C)CC2)nc(OC)c1Sc1cccc(NC(=O)c2ccccc2)c1 — what was its INH?
497 µM

* * *

System: Kasumi 1
Assay: Cytotoxicity against human Kasumi-1 cells after 72 hrs by alamar blue assay
Type: functional, cell-based
Conditions: Homo sapiens, Kasumi 1, 72 h; read-out: IC50
pIC50: −log10 of the molar value.
Rule: pIC50 of 5 or more gives TRUE; anything lower gives FALSE.

Has CC(=O)Nc1cccc(Sc2cnc(N3CCN(C)CC3)nc2OCc2ccccc2)c1 a recorded pIC50 greater than or equal to 5?
TRUE

Quick check: does COc1nc(N2CCN(C)CC2)ccc1Sc1cccc(NC(=O)c2ccccc2)c1 have pIC50 greater than or equal to 5?
TRUE

Assess whether reported pIC50 for COc1nc(N2CCN(C)CC2)nc(OC)c1Sc1nc(N)cc(NC(=O)CCN(C)C)n1 sits at 5 or higher.
FALSE

Dear colleague, could you confirm whether CCOc1nc(N2CCN(C)CC2)nc(OCC)c1Sc1nc(N)cc(NC(=O)CC)n1 has pIC50 at or above 5?
FALSE

Reported pIC50 reaches at least 5 for CN1CCN(c2ncc(Sc3cccc(NC(=O)C4CCCN4)c3)c(OCc3ccccc3)n2)CC1 (stereo not given) ?
TRUE

Record COc1nc(N2CCN(C)CC2)ccc1Sc1nccc(NC(=O)C2CC2)n1 ; criterion: pIC50 no lower than 5. Met?
FALSE

Is pIC50 for COc1nc(N2CCN(C)CC2)ccc1Sc1cccc(NC(=O)CN)c1 at or above 5?
FALSE

Tell me whether pIC50 is at least 5 here: COc1nc(N2CCN(C)CC2)nc(OC)c1Sc1cccc(NC(=O)C2CCC2)c1
FALSE

Entry CC(C)C(N)C(=O)Nc1cccc(Sc2cnc(N3CCN(C)CC3)nc2OCc2ccccc2)c1 (stereo not given) : is its pIC50 no less than 5?
TRUE
